TESTED SYSTEM: Mu-type opioid receptor (Homo sapiens) (UniProt P35372)
Sequence (P35372 whole entry): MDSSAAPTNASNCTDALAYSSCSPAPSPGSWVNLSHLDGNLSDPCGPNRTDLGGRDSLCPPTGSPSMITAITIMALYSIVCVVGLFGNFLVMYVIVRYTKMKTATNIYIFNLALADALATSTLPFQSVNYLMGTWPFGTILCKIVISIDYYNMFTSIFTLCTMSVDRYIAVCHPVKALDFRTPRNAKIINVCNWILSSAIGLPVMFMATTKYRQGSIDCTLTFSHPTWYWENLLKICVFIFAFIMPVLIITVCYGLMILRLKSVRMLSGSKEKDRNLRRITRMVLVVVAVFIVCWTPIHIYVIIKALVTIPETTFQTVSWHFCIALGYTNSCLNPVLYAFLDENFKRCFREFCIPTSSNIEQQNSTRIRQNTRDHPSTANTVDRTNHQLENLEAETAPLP
PROCEDURE DETAILS: Agonist activity at human MOR expressed in CHO cell membranes incubated for 60 mins scintillation counting assay relative to DAMGO
DETAILS: Cell membrane, filed as agonist
Please go through the items and note down their Activity.
Provide the reading as a plain figure in %.

[ask] Tell me measured Activity for CC[C@H](N[C@@H]1CC[C@@]2(OC)[C@H]3Cc4ccc(O)c5c4[C@@]2(CCN3C)[C@H]1O5)C(=O)O please.
[reply] 83

[ask] Could you please provide reported Activity for CO[C@@]12CC[C@@H](N[C@@H](CC(=O)O)C(=O)O)[C@@H]3Oc4c(O)ccc5c4[C@@]31CCN(C)[C@@H]2C5 ? Thanks!
[reply] 74

[ask] Provide measured Activity value, entry: CO[C@@]12CC[C@@H](N[C@H](Cc3ccccc3)C(=O)O)[C@@H]3Oc4c(O)ccc5c4[C@@]31CCN(C)[C@@H]2C5
[reply] 78

[ask] Report Activity, nothing else, for this molecule: CO[C@@]12CC[C@@H](N[C@H](C(=O)O)C(C)C)[C@@H]3Oc4c(O)ccc5c4[C@@]31CCN(C)[C@@H]2C5
[reply] 84

[ask] Retrieve Activity measured for CO[C@@]12CC[C@@H](NCCC(=O)O)[C@@H]3Oc4c(O)ccc5c4[C@@]31CCN(C)[C@@H]2C5 and print it.
[reply] 78

###

PROCEDURE DETAILS: Selectivity index, ratio of Ki for displacement of [3H]U69,593 from kappa opioid receptor in guinea-pig brain membranes to Ki for displacement of [3H]DAMGO from mu opioid receptor in rat brain membranes
Assay type: cell membranes
Decision: Ratio Ki >= 80 yields TRUE, all other cases yield FALSE.

[ask] Tell me whether Ratio Ki is at least 80 here: CO[C@@]12CC[C@@H](N[C@@H](CCCCN)C(=O)O)[C@@H]3Oc4c(O)ccc5c4[C@@]31CCN(C)[C@@H]2C5
[reply] FALSE

[ask] Given the entry CO[C@@]12CC[C@H](NCCC(=O)O)[C@@H]3Oc4c(O)ccc5c4[C@@]31CCN(C)[C@@H]2C5 , answer whether its Ratio Ki meets or surpasses 80.
[reply] TRUE

[ask] Would you say CO[C@@]12CC[C@@H](N[C@H](Cc3ccccc3)C(=O)O)[C@@H]3Oc4c(O)ccc5c4[C@@]31CCN(C)[C@@H]2C5 shows Ratio Ki at minimum 80?
[reply] TRUE

[ask] State whether the measured Ratio Ki reaches 80, counting equality as reaching it, for CO[C@@]12CC[C@@H](NCCC(=O)O)[C@@H]3Oc4c(O)ccc5c4[C@@]31CCN(C)[C@@H]2C5
[reply] FALSE

[ask] Textbook exercise: given the entry CO[C@@]12CC[C@@H](N[C@@H](C(=O)O)C(C)C)[C@@H]3Oc4c(O)ccc5c4[C@@]31CCN(C)[C@@H]2C5 , state whether its Ratio Ki is greater than or equal to 80.
[reply] TRUE

[ask] Exam item: decide whether the reported Ratio Ki for CO[C@@]12CC[C@@H](N[C@@H](Cc3c[nH]c4ccccc34)C(=O)O)[C@@H]3Oc4c(O)ccc5c4[C@@]31CCN(C)[C@@H]2C5 is at least 80.
[reply] FALSE

###

PROCEDURE DETAILS: Selectivity index, ratio of Ki for displacement of [3H]U69,593 from kappa opioid receptor in guinea-pig brain membranes to Ki for displacement of [3H]DAMGO from mu opioid receptor in rat brain membranes
Format: cell membranes
Returns: string. Value is met if measured Ratio Ki is below 80, and not met if it is greater than or equal to it.

[ask] Identify whether the compound CO[C@@]12CC[C@H](N[C@@H](CC(N)=O)C(=O)O)[C@@H]3Oc4c(O)ccc5c4[C@@]31CCN(C)[C@@H]2C5 records Ratio Ki below 80.
[reply] met

[ask] For CO[C@@]12CC[C@H](N[C@@H](Cc3ccc(O)cc3)C(=O)O)[C@@H]3Oc4c(O)ccc5c4[C@@]31CCN(C)[C@@H]2C5 , is the recorded Ratio Ki below the cut-off of 80?
[reply] met

[ask] Dear colleague, could you confirm whether Ratio Ki of CO[C@@]12CC[C@@H](N[C@@H](CC(=O)O)C(=O)O)[C@@H]3Oc4c(O)ccc5c4[C@@]31CCN(C)[C@@H]2C5 falls below 80? Thanks.
[reply] not met

[ask] In plain terms, does CO[C@@]12CC[C@@H](N[C@@H](Cc3ccc(O)cc3)C(=O)O)[C@@H]3Oc4c(O)ccc5c4[C@@]31CCN(C)[C@@H]2C5 come in under 80 for Ratio Ki?
[reply] met

[ask] Would you kindly verify if Ratio Ki of CO[C@@]12CC[C@@H](N[C@@H](CCC(N)=O)C(=O)O)[C@@H]3Oc4c(O)ccc5c4[C@@]31CCN(C)[C@@H]2C5 is strictly less than 80?
[reply] not met

[ask] Field: below-cutoff. Rule: recorded Ratio Ki strictly less than 80. Subject: CO[C@@]12CC[C@H](N[C@H](C(=O)O)C(C)C)[C@@H]3Oc4c(O)ccc5c4[C@@]31CCN(C)[C@@H]2C5
[reply] not met

[ask] Please let me know if CO[C@@]12CC[C@H](N[C@H](C(=O)N[C@@H](Cc3ccc(O)cc3)C(=O)O)C(C)C)[C@@H]3Oc4c(O)ccc5c4[C@@]31CCN(C)[C@@H]2C5 shows Ratio Ki below 80.
[reply] not met

[ask] Please state whether Ratio Ki is below 80 for CC[C@H](N[C@H]1CC[C@@]2(OC)[C@H]3Cc4ccc(O)c5c4[C@@]2(CCN3C)[C@H]1O5)C(=O)O
[reply] not met

[ask] Strictly below 80 in Ratio Ki? CO[C@@]12CC[C@H](N[C@@H](Cc3ccccc3)C(=O)O)[C@@H]3Oc4c(O)ccc5c4[C@@]31CCN(C)[C@@H]2C5
[reply] met

[ask] In the record for CO[C@@]12CC[C@@H](N[C@@H](Cc3ccccc3)C(=O)O)[C@@H]3Oc4c(O)ccc5c4[C@@]31CCN(C)[C@@H]2C5 , is Ratio Ki less than 80?
[reply] met

[ask] Report whether reported Ratio Ki is lower than 80 (strictly) for CO[C@@]12CC[C@@H](NCC(=O)NCC(=O)O)[C@@H]3Oc4c(O)ccc5c4[C@@]31CCN(C)[C@@H]2C5
[reply] met

[ask] Find out if reported Ratio Ki for CO[C@@]12CC[C@H](N[C@@H](Cc3c[nH]c4ccccc34)C(=O)O)[C@@H]3Oc4c(O)ccc5c4[C@@]31CCN(C)[C@@H]2C5 is less than 80
[reply] met

[ask] Dear colleague, could you confirm whether Ratio Ki of CO[C@@]12CC[C@H](N[C@@H](C(=O)O)C(C)C)[C@@H]3Oc4c(O)ccc5c4[C@@]31CCN(C)[C@@H]2C5 falls below 80? Thanks.
[reply] not met

[ask] Is it true that Ratio Ki reported for CO[C@@]12CC[C@H](NCCCC(=O)O)[C@@H]3Oc4c(O)ccc5c4[C@@]31CCN(C)[C@@H]2C5 is less than 80?
[reply] met
